Please go through the items and note down their IC50.
# Experimental System: human arginase I (ARG I) (Homo sapiens, UniProt P05089)
# Sequence (P05089 1-322): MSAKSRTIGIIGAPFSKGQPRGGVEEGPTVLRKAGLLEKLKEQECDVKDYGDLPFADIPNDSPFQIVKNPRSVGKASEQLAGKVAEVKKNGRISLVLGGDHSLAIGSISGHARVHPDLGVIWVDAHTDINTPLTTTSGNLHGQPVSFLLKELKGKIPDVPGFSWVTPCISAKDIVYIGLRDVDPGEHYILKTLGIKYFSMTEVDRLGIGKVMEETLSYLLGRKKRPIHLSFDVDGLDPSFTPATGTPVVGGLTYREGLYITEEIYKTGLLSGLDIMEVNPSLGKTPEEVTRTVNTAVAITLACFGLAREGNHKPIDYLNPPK
# Assay Summary: Inhibition of arginase I, spectrophotometric urea assay at 530 nm
# Format: biochemical
# Conditions: Formula II compounds, Table 2-A; read-out: Potency (ARG I)
Counter-ions that a name gives are not always drawn.

Lab note: compound NC(CCCCB(O)O)(C(=O)O)[C@@H]1CCN(S(=O)(=O)c2ccccc2[N+](=O)[O-])C1 (stereo partly shown) tested on human arginase I (ARG I) (Homo sapiens, UniProt P05089); recorded IC50 was 251 to 1000 nM

Measured IC50 for this entry NC(CCCCB(O)O)(C(=O)O)C1CCN(C(=O)c2ccccc2)CC1 (stereo not shown) [30-A, hydrochloride] on human arginase I (ARG I) (Homo sapiens, UniProt P05089): 2000 to 5000 nM

The compound NC(CCCCB(O)O)(C(=O)O)C1CCN(c2ncc(C(F)(F)F)cc2Cl)CC1 (stereo not shown) [10-A, dihydrochloride] , when measured on human arginase I (ARG I) (Homo sapiens, UniProt P05089), yielded IC50 of 2000 to 5000 nM

The value of IC50 recorded for NC(CCCCB(O)O)(C(=O)O)C1CCN(Cc2ccccc2)CC1 (stereo not shown) [Example 87-A, dihydrochloride] when tested on human arginase I (ARG I) (Homo sapiens, UniProt P05089) reads 0.1 to 250 nM

Known value: human arginase I (ARG I) (Homo sapiens, UniProt P05089) IC50 of the compound NC(CCCCB(O)O)(C(=O)O)[C@H]1C[C@@H](NCc2cccc3ccccc23)C1 (stereo partly shown) [Example 80-A, dihydrochloride] equals 0.1 to 250 nM

Kindly note: human arginase I (ARG I) (Homo sapiens, UniProt P05089), NC(CCCCB(O)O)(C(=O)O)C1CCN(Cc2ccc3c(c2)OCO3)CC1 (stereo not shown) [Example 90-A, dihydrochloride] , IC50 value reported: 0.1 to 250 nM

Bench note, human arginase I (ARG I) (Homo sapiens, UniProt P05089): NC(CCCCB(O)O)(C(=O)O)C1CCN(CCc2ccccc2)CC1 (stereo not shown) , IC50 reads 251 to 1000 nM

human arginase I (ARG I) (Homo sapiens, UniProt P05089) assay, compound N[C@H]1CC[C@H]([C@](N)(CCCCB(O)O)C(=O)O)C1 [16-A, dihydrochloride] , recorded IC50 = 0.1 to 250 nM

Entry NC(CCCCB(O)O)(C(=O)O)C1CCN(C(=O)NCc2ccc(Cl)cc2)CC1 (stereo not shown) [31-A, hydrochloride] ; assay system human arginase I (ARG I) (Homo sapiens, UniProt P05089); IC50 recorded at 1000 to 2000 nM

Log: human arginase I (ARG I) (Homo sapiens, UniProt P05089), compound NC(CCCCB(O)O)(C(=O)O)C1CCN(Cc2ccc(Cl)cc2)CC1 (stereo not shown) [Example 89-A, dihydrochloride] , IC50 = 0.1 to 250 nM

The compound NC(CCCCB(O)O)(C(=O)O)C1CCN(Cc2cccc3ccccc23)CC1 (stereo not shown) [Example 98-A, dihydrochloride] , when measured on human arginase I (ARG I) (Homo sapiens, UniProt P05089), yielded IC50 of 0.1 to 250 nM

Reported human arginase I (ARG I) (Homo sapiens, UniProt P05089) IC50 for item CC(C)CN[C@H]1C[C@@H](C(N)(CCCCB(O)O)C(=O)O)C1 (stereo partly shown) [Example 83-A, dihydrochloride] was 0.1 to 250 nM

Entry NC(CCCCB(O)O)(C(=O)O)C1CCN(Cc2ccc(OC(F)(F)F)cc2)CC1 (stereo not shown) [Example 100-A, dihydrochloride] : IC50 on human arginase I (ARG I) (Homo sapiens, UniProt P05089) = 0.1 to 250 nM

Bench note, human arginase I (ARG I) (Homo sapiens, UniProt P05089): CCCN1CCC(C(N)(CCCCB(O)O)C(=O)O)CC1 (stereo not shown) [Example 101-A, dihydrochloride] , IC50 reads 251 to 1000 nM

Tested on human arginase I (ARG I) (Homo sapiens, UniProt P05089), the item NC(CCCCB(O)O)(C(=O)O)[C@H]1C[C@@H](NCc2ccccc2)C1 (stereo partly shown) [Example 74-A, dihydrochloride] showed IC50 equal to 0.1 to 250 nM

Per the reported human arginase I (ARG I) (Homo sapiens, UniProt P05089) data, NC(CCCCB(O)O)(C(=O)O)[C@H]1CC[C@@H](C(=O)c2ccc(Cl)cc2)CC1 (stereo partly shown) [Example 84-A, hydrochloride] has IC50 of > 5000 nM

Entry NC(CCCCB(O)O)(C(=O)O)C1CCN(CCCc2ccccc2)CC1 (stereo not shown) [Example 102-A, dihydrochloride] : IC50 on human arginase I (ARG I) (Homo sapiens, UniProt P05089) = 0.1 to 250 nM

Bench note, human arginase I (ARG I) (Homo sapiens, UniProt P05089): NC(CCCCB(O)O)(C(=O)O)C1CCN(CCc2ccc(F)c(F)c2)CC1 (stereo not shown) [Example 59-A, dihydrochloride] , IC50 reads 0.1 to 250 nM

Measured IC50 for this entry NC(CCCCB(O)O)(C(=O)O)[C@H]1C[C@@H](NCc2ccc(Cl)cc2)C1 (stereo partly shown) [Example 82-A, dihydrochloride] on human arginase I (ARG I) (Homo sapiens, UniProt P05089): 0.1 to 250 nM

Bench note, human arginase I (ARG I) (Homo sapiens, UniProt P05089): entry CC1(C)CCC(N2CCC(C(N)(CCCCB(O)O)C(=O)O)CC2)CC1 (stereo not shown) [25-A, dihydrochloride] , its IC50 = 0.1 to 250 nM

Param item: NC(CCCCB(O)O)(C(=O)O)C1CCN(C(=S)Nc2ccc(Cl)cc2)CC1 (stereo not shown) [34-A, hydrochloride] ; param system: human arginase I (ARG I) (Homo sapiens, UniProt P05089); output IC50: 251 to 1000 nM

NC(CCCCB(O)O)(C(=O)O)[C@H]1C[C@H](NCc2ccccc2)C1 (stereo partly shown) [Example 75-A, dihydrochloride] tested on human arginase I (ARG I) (Homo sapiens, UniProt P05089) gave IC50: 0.1 to 250 nM

Form field IC50 for item NC(CCCCB(O)O)(C(=O)O)C1CCNCC1 (stereo not shown) [Example 88-A, dihydrochloride] on human arginase I (ARG I) (Homo sapiens, UniProt P05089): 251 to 1000 nM

Lab entry: human arginase I (ARG I) (Homo sapiens, UniProt P05089) assay, compound NC(CCCCB(O)O)(C(=O)O)C1CCC(c2ccc(Cl)cc2)CC1 (stereo not shown) [Example 86-A, hydrochloride] , IC50 = > 5000 nM

# IC50 measured on human arginase I (ARG I) (Homo sapiens, UniProt P05089) for item NC(CCCCB(O)O)(C(=O)O)C1CCN(C(=S)NCc2ccc(Cl)cc2)CC1 (stereo not shown) = 251 to 1000 nM

The recorded IC50 with human arginase I (ARG I) (Homo sapiens, UniProt P05089) for NC(CCCCB(O)O)(C(=O)O)C1CCN(Cc2ccc(F)cc2)CC1 (stereo not shown) [Example 94-A, dihydrochloride] was 0.1 to 250 nM

The reported IC50 value, human arginase I (ARG I) (Homo sapiens, UniProt P05089), for NC(CCCCB(O)O)(C(=O)O)[C@@H]1CCN(Cc2ccc(F)cc2)C1 (mixture of isomers) reads 251 to 1000 nM

// IC50 (human arginase I (ARG I) (Homo sapiens, UniProt P05089)) for NC(CCCCB(O)O)(C(=O)O)C1CCN(C(=O)Nc2ccc(Cl)cc2)C1 (stereo not shown) [36-A, hydrochloride] = 251 to 1000 nM

// compound NC(CCCCB(O)O)(C(=O)O)C1CCN(c2cc(C(F)(F)F)nc3ccccc23)CC1 (stereo not shown) [3-A, hydrochloride] , assay human arginase I (ARG I) (Homo sapiens, UniProt P05089), IC50 value: 1000 to 2000 nM

Bench note, human arginase I (ARG I) (Homo sapiens, UniProt P05089): NC(CCCCB(O)O)(C(=O)O)C1CNC1 (stereo not shown) [18-A, dihydrochloride] , IC50 reads 2000 to 5000 nM

Form field IC50 for item NC(CCCCB(O)O)(C(=O)O)C1CCN(c2nccc(C(F)(F)F)n2)CC1 (stereo not shown) [2-A, hydrochloride] on human arginase I (ARG I) (Homo sapiens, UniProt P05089): 1000 to 2000 nM
